# MEASURED TARGET: Proto-oncogene tyrosine-protein kinase Src (Homo sapiens) (UniProt P12931)
# Sequence (P12931 2-536 limits assumed): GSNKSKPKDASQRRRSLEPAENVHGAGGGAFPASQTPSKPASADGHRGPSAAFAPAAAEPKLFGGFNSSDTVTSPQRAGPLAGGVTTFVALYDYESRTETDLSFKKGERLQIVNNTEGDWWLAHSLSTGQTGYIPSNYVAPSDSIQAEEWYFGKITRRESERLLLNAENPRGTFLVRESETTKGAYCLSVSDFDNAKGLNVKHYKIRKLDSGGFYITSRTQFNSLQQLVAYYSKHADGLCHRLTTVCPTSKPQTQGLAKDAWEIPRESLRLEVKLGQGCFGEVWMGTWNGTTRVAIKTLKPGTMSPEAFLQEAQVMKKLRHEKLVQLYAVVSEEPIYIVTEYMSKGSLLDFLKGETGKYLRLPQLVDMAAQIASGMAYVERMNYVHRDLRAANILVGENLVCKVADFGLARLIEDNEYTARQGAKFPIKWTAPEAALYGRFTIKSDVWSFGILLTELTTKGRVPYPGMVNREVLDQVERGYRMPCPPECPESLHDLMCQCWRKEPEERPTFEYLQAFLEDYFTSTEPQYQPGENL
# MEASUREMENT CONDITIONS: at 10 µM
# Description: Inhibition of human recombinant SRC at 10 uM relative to control
The label depends only on inhibition: yes (1) if it is at least 70%, no (0) if it is smaller.

compound=CCN(CC)CCCOc1cc2ncnc(Nc3nc4ccc(C(=O)Nc5c(C)cc(C)cc5C)cc4s3)c2cc1OC category="no (0)"
compound=CCN(CC)CCCOc1cc2ncnc(Nc3nc4ccc(C(=O)Nc5c(C)cccc5C)cc4s3)c2cc1OC category="no (0)"
compound="COc1cc2c(Nc3nc4ccc(C(=O)Nc5c(C)cccc5C)cc4s3)ncnc2cc1OCCCN1CCCCC1C (stereo not drawn)" category="no (0)"
compound=COc1cc2c(Nc3nc4ccc(C(=O)Nc5c(C)cccc5C)cc4s3)ncnc2cc1OCCCN1CCCCC1 category="no (0)"
compound=COc1cc2c(Nc3nc4ccc(C(=O)Nc5c(C)cccc5Cl)cc4s3)ncnc2cc1OCCCN1CCCCC1 category="yes (1)"
compound=COc1cc2c(Nc3nc4ccc(C(=O)Nc5c(C)cc(C)cc5C)cc4s3)ncnc2cc1OCCCN1CCCC1 category="yes (1)"
compound="COc1cc2c(Nc3nc4ccc(C(=O)Nc5c(C)cccc5Cl)cc4s3)ncnc2cc1OCCCN1CCCCC1C (stereo not drawn)" category="yes (1)"
compound=COc1cc2c(Nc3nc4ccc(C(=O)Nc5c(C)cccc5C)cc4s3)ncnc2cc1OCCCN1CCC(C)CC1 category="no (0)"
compound=COc1cc2c(Nc3nc4ccc(C(=O)Nc5c(C)cccc5C)cc4s3)ncnc2cc1OCCCN1CCOCC1 category="no (0)"
compound=COc1cc2c(Nc3nc4ccc(C(=O)Nc5c(C)cccc5Cl)cc4s3)ncnc2cc1OCCCN1CCCC1 category="no (0)"
compound=COc1cc2c(Nc3nc4ccc(C(=O)Nc5c(C)cc(C)cc5C)cc4s3)ncnc2cc1OCCCN1CCC(C)CC1 category="yes (1)"
compound=COc1cc2c(Nc3nc4ccc(C(=O)Nc5c(C)cccc5C)cc4s3)ncnc2cc1OCCCN1CCCC1 category="no (0)"
compound=COc1cc2c(Nc3nc4ccc(C(=O)Nc5c(C)cccc5Cl)cc4s3)ncnc2cc1OCCCN1CCC(C)CC1 category="no (0)"
compound=COc1cc2c(Nc3nc4ccc(C(=O)Nc5c(C)cc(C)cc5C)cc4s3)ncnc2cc1OCCCN1CCOCC1 category="yes (1)"
compound=COc1cc2c(Nc3nc4ccc(C(=O)Nc5c(C)cccc5Cl)cc4s3)ncnc2cc1OCCCN1CCOCC1 category="no (0)"
compound="COc1cc2c(Nc3nc4ccc(C(=O)Nc5c(C)cc(C)cc5C)cc4s3)ncnc2cc1OCCCN1CCCCC1C (stereo not drawn)" category="yes (1)"

----------
# System: HCT-116
# METHOD DESCRIPTION: Cytotoxicity against human HCT116 cells after 72 hrs by WST-8 assay
# Format: functional, cell-based
# MEASUREMENT CONDITIONS: HCT-116, 72 h
pIC50: −log10 of the molar value.
The label depends only on pIC50: Met if it is at least 5, Not met if it is smaller.

chemical_smiles=COc1cc2c(Nc3nc4ccc(C(=O)Nc5c(C)cccc5C)cc4s3)ncnc2cc1OCCCN1CCC(C)CC1 category="Not met"
chemical_smiles=COc1cc2c(Nc3nc4ccc(C(=O)Nc5c(C)cccc5C)cc4s3)ncnc2cc1OCCCN1CCCC1 category="Not met"
chemical_smiles=COc1cc2c(Nc3nc4ccc(C(=O)Nc5c(C)cccc5C)cc4s3)ncnc2cc1OCCCN1CCCCC1 category="Not met"
chemical_smiles=COc1cc2c(Nc3nc4ccc(C(=O)Nc5c(C)cc(C)cc5C)cc4s3)ncnc2cc1OCCCN1CCCCC1 category="Not met"
chemical_smiles=COc1cc2c(Nc3nc4ccc(C(=O)Nc5c(C)cc(C)cc5C)cc4s3)ncnc2cc1OCCCN1CCCC1 category=Met

----------
# System: DLD-1
# METHOD DESCRIPTION: Cytotoxicity against human DLD1 cells after 72 hrs by WST-8 assay
# Format: functional, cell-based
# MEASUREMENT CONDITIONS: DLD-1, 72 h
pIC50: −log10 of the molar value.
A collection of compounds and their measured pIC50
ATTRIBUTE MEASURED: pIC50

compound=COc1cc2c(Nc3nc4ccc(C(=O)Nc5c(C)cccc5C)cc4s3)ncnc2cc1OCCCN1CCC(C)CC1 qualifier_symbol=< readout_number=4.00
compound=COc1cc2c(Nc3nc4ccc(C(=O)Nc5c(C)cc(C)cc5C)cc4s3)ncnc2cc1OCCCN1CCCC1 qualifier_symbol== readout_number=5.23
compound=COc1cc2c(Nc3nc4ccc(C(=O)Nc5c(C)cccc5Cl)cc4s3)ncnc2cc1OCCCN1CCC(C)CC1 qualifier_symbol== readout_number=4.95
compound=COc1cc2c(Nc3nc4ccc(C(=O)Nc5c(C)cccc5Cl)cc4s3)ncnc2cc1OCCCN1CCOCC1 qualifier_symbol=< readout_number=4.00
compound=CCN(CC)CCCOc1cc2ncnc(Nc3nc4ccc(C(=O)Nc5c(C)cc(C)cc5C)cc4s3)c2cc1OC qualifier_symbol== readout_number=5.17
compound="COc1cc2c(Nc3nc4ccc(C(=O)Nc5c(C)cccc5C)cc4s3)ncnc2cc1OCCCN1CCCCC1C (stereo not drawn)" qualifier_symbol=< readout_number=4.00
compound=COc1cc2c(Nc3nc4ccc(C(=O)Nc5c(C)cccc5C)cc4s3)ncnc2cc1OCCCN1CCCC1 qualifier_symbol=< readout_number=4.00
compound=COc1cc2c(Nc3nc4ccc(C(=O)Nc5c(C)cc(C)cc5C)cc4s3)ncnc2cc1OCCCN1CCCCC1 qualifier_symbol== readout_number=4.61

----------
A collection of compounds and their measured inhibition
# MEASURED TARGET: Epidermal growth factor receptor (Homo sapiens) (UniProt P00533)
# Sequence (P00533 whole entry): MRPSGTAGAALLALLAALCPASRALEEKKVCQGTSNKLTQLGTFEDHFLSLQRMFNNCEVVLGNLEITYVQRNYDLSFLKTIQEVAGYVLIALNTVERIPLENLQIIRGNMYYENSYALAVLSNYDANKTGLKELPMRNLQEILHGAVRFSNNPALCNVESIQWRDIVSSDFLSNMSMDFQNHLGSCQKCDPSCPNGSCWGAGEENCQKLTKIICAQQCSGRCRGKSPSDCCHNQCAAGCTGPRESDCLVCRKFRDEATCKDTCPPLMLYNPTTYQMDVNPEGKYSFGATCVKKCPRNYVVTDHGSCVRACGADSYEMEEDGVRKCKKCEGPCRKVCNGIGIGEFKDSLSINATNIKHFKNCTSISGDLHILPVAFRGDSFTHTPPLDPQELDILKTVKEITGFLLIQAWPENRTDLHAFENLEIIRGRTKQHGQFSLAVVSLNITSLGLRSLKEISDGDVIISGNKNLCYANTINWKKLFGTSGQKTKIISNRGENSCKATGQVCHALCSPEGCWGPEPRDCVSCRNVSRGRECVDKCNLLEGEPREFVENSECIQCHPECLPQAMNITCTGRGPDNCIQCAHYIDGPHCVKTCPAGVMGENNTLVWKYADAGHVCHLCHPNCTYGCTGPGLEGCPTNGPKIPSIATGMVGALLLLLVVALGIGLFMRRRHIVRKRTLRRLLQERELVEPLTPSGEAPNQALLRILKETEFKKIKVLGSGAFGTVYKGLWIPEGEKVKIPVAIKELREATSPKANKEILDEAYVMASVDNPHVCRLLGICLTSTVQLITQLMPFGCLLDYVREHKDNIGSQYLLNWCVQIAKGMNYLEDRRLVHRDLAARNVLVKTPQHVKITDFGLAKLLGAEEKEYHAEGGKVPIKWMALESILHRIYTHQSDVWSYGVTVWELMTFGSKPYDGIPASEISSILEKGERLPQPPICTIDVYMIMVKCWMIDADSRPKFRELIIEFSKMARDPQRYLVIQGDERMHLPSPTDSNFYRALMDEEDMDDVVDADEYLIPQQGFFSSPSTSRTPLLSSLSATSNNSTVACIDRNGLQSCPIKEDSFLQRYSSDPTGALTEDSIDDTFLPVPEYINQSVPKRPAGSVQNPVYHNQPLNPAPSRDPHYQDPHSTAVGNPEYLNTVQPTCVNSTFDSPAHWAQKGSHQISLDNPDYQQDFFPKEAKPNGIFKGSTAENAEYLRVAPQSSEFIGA
# MEASUREMENT CONDITIONS: at 10 µM
# Description: Inhibition of EGFR (unknown origin) at 10 uM relative to control
ATTRIBUTE MEASURED: inhibition (%)

compound="COc1cc2c(Nc3nc4ccc(C(=O)Nc5c(C)cccc5Cl)cc4s3)ncnc2cc1OCCCN1CCCCC1C (stereo not given)" attribute_measured=inhibition result_units=% readout_number=53.6
compound="COc1cc2c(Nc3nc4ccc(C(=O)Nc5c(C)cccc5C)cc4s3)ncnc2cc1OCCCN1CCCCC1C (stereo not given)" attribute_measured=inhibition result_units=% readout_number=25.4
compound=COc1cc2c(Nc3nc4ccc(C(=O)Nc5c(C)cccc5C)cc4s3)ncnc2cc1OCCCN1CCCCC1 attribute_measured=inhibition result_units=% readout_number=17.3
compound=COc1cc2c(Nc3nc4ccc(C(=O)Nc5c(C)cccc5C)cc4s3)ncnc2cc1OCCCN1CCC(C)CC1 attribute_measured=inhibition result_units=% readout_number=13.3
compound=COc1cc2c(Nc3nc4ccc(C(=O)Nc5c(C)cccc5Cl)cc4s3)ncnc2cc1OCCCN1CCC(C)CC1 attribute_measured=inhibition result_units=% readout_number=23.7
compound=COc1cc2c(Nc3nc4ccc(C(=O)Nc5c(C)cccc5Cl)cc4s3)ncnc2cc1OCCCN1CCOCC1 attribute_measured=inhibition result_units=% readout_number=10.4
compound=COc1cc2c(Nc3nc4ccc(C(=O)Nc5c(C)cc(C)cc5C)cc4s3)ncnc2cc1OCCCN1CCOCC1 attribute_measured=inhibition result_units=% readout_number=45.1
compound=CCN(CC)CCCOc1cc2ncnc(Nc3nc4ccc(C(=O)Nc5c(C)cc(C)cc5C)cc4s3)c2cc1OC attribute_measured=inhibition result_units=% readout_number=25.4
compound=COc1cc2c(Nc3nc4ccc(C(=O)Nc5c(C)cc(C)cc5C)cc4s3)ncnc2cc1OCCCN1CCCC1 attribute_measured=inhibition result_units=% readout_number=48.7
compound=COc1cc2c(Nc3nc4ccc(C(=O)Nc5c(C)cccc5Cl)cc4s3)ncnc2cc1OCCCN1CCCC1 attribute_measured=inhibition result_units=% readout_number=15.6

----------
# System: NCI-H661
# METHOD DESCRIPTION: Cytotoxicity against human NCI-H661 cells after 72 hrs by WST-8 assay
# Assay type: functional, cell-based
# MEASUREMENT CONDITIONS: NCI-H661, 72 h
A collection of compounds and their measured log10 IC50
ATTRIBUTE MEASURED: log10 IC50 (log10 of the value in µM)

compound=COc1cc2c(Nc3nc4ccc(C(=O)Nc5c(C)cccc5Cl)cc4s3)ncnc2cc1OCCCN1CCCC1 readout_number=1.66
compound=COc1cc2c(Nc3nc4ccc(C(=O)Nc5c(C)cccc5Cl)cc4s3)ncnc2cc1OCCCN1CCCCC1 readout_number=1.14
compound=COc1cc2c(Nc3nc4ccc(C(=O)Nc5c(C)cccc5Cl)cc4s3)ncnc2cc1OCCCN1CCC(C)CC1 readout_number=0.90
compound=CCN(CC)CCCOc1cc2ncnc(Nc3nc4ccc(C(=O)Nc5c(C)cccc5Cl)cc4s3)c2cc1OC readout_number=1.05
compound=COc1cc2c(Nc3nc4ccc(C(=O)Nc5c(C)cc(C)cc5C)cc4s3)ncnc2cc1OCCCN1CCCCC1 readout_number=1.00
compound="COc1cc2c(Nc3nc4ccc(C(=O)Nc5c(C)cccc5C)cc4s3)ncnc2cc1OCCCN1CCCCC1C (stereo not drawn)" readout_number=1.93
compound=COc1cc2c(Nc3nc4ccc(C(=O)Nc5c(C)cc(C)cc5C)cc4s3)ncnc2cc1OCCCN1CCC(C)CC1 readout_number=0.89
